target: human glucagon receptor (human), P47871; assay: radioligand competition SPA, HEK293 membranes
Sequence (P47871 26-477): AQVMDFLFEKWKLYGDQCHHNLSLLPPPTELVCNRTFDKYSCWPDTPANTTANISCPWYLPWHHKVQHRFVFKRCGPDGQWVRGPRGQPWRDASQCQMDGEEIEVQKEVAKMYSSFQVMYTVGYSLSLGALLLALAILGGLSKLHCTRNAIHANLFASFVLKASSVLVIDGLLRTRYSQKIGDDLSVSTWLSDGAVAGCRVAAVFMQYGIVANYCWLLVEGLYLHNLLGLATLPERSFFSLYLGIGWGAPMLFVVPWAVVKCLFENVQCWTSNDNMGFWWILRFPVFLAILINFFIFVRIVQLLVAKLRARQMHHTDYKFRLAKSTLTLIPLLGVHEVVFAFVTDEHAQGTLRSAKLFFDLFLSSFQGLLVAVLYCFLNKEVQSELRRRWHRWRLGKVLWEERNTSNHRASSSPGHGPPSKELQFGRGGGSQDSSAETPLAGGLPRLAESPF
*1 amine or outer side, *2 acyl side, *3 side chain or, on linkers, in order; H or OH if unused. Where no end group is shown, it is not given here. Side-chain parts run from the residue outwards. [ ]: non-standard residue; d: D form. The star is where a group is joined. C20 diacid = O=C(O)CCCCCCCCCCCCCCCCCCC(=O)*; γGlu = O=C(O)[C@H](CCC(=O)[*:2])N[*:1]; αMeL = CC(C)C[C@](C)(N)C(=O)O; αMeK = C[C@](N)(CCCCN)C(=O)O; AEEA = NCCOCCOCC(=O)O; Aib = CC(C)(N)C(=O)O
quantity: log10(Ki) (log10 of the value in nM)
Transform log10 | Measure Ki | Unit nM

Y[Aib]QGTFTSDYSI[αMeL]LDKK([AEEA-AEEA-γGlu-C20 diacid])AQHAFIEYLLEGGPSSGAPPPS-NH2 [Example 7] ... 1.21
Y[Aib]QGTFTSDYSILLDKK([AEEA-γGlu-C20 diacid])AQ[Aib]AFIEYLLEGGPSSGAPPPS-NH2 [Example 18] ... 0.76
Y[Aib]QGTFTSDYSI[αMeL]LDKK([AEEA-AEEA-γGlu-C20 diacid])AQ[αMeK]AFIEYLLEGGPSSGAPPPS-NH2 [Example 3] ... 1.08

Dear colleague, could you send me log10(Ki) for each of the items below? Thanks.
1. Y[Aib]QGTFTSDYSILLDKK([AEEA-AEEA-γGlu-C20 diacid])AQ[Aib]AFIEYLLEGGPSSGAPPPS-NH2 [Example 16]
2. Y[Aib]QGTFTSDYSI[αMeL]LDKK([AEEA-AEEA-γGlu-C20 diacid])AAQAFIEYLLEGGPSSGAPPPS-NH2 [Example 6]
3. Y[Aib]QGTFTSDYSI[αMeL]LDKK([AEEA-γGlu-C20 diacid])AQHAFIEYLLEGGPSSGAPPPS-NH2 [Example 10]

Response given:
1. 1.06
2. -0.08
3. 0.87

The measured values listed here are drawn from patent US20250313605A1.
